Each entry below lists one item and its recorded TGI value.
Tested on: HOP-62 NSCLC
Assay: NCI tumour cell line growth inhibition, 48 h

[
  {
    "Compound": "O=C(Nc1ccc(C(F)(F)F)cc1[N+](=O)[O-])C(=O)C(C(=O)c1ccc2ccccc2c1)C1OC(=O)c2ccccc21 (stereo unspecified)",
    "TGI": "14.8 µM"
  },
  {
    "Compound": "Cc1ccccc1C(C#N)/C(=N/NC(=O)c1cc2ccccc2cc1O)C(=O)Nc1cccc(Cl)c1 (stereo unspecified)",
    "TGI": "> 100 µM"
  },
  {
    "Compound": "c1ccc(-c2nc(Nc3ccc(-c4nc5ccccc5[nH]4)cc3)nc(N3CCOCC3)n2)cc1",
    "TGI": "3.52 µM"
  },
  {
    "Compound": "O=C(Nc1ccccc1Cl)c1cnc2ccc(C3CCNCC3)cn12",
    "TGI": "> 100 µM"
  },
  {
    "Compound": "Cc1ccc2c(ccc3c[n+]4ccccc4c(C)c32)c1",
    "TGI": "11.3 µM"
  },
  {
    "Compound": "Cn1c2ccccc2c2c(=O)n(CCCC(=O)NCC(=O)OC(=NC3CCCCC3)NC3CCCCC3)c3c(-c4ccccc4)nnn3c21",
    "TGI": "36.6 µM"
  },
  {
    "Compound": "Cc1ccc(-c2c(C#N)c(-c3ccc(N(C)C)cc3)c(C#N)c(=O)n2NS(=O)(=O)c2ccccc2)cc1",
    "TGI": "> 100 µM"
  },
  {
    "Compound": "Cc1ccc(S(=O)(=O)N(c2ccccc2F)C2CCCCC2O)cc1 (stereo unspecified)",
    "TGI": "> 100 µM"
  },
  {
    "Compound": "COc1nccc(-c2c(-c3ccc(F)cc3)ncn2C2CCC(O)CC2)n1 (stereo unspecified)",
    "TGI": "> 100 µM"
  },
  {
    "Compound": "Clc1nc(Cl)c2ncn(C/C=C\\Cn3cnc4c(Cl)nc(Cl)nc43)c2n1",
    "TGI": "4.71 µM"
  },
  {
    "Compound": "CN1C(c2ccccc2)CC(=Nc2ccccc2)CC1c1ccccc1 (stereo unspecified)",
    "TGI": "34.6 µM"
  },
  {
    "Compound": "O=[N+]([O-])c1ccc(Cc2nc3ccccc3s2)cc1",
    "TGI": "> 100 µM"
  },
  {
    "Compound": "COC(=O)c1c/c(=N\\NC(=O)CC(=O)Nc2ccccc2Cl)c2ccccc2o1",
    "TGI": "> 100 µM"
  },
  {
    "Compound": "Cc1cc2c(cn1)C(=O)OCC2",
    "TGI": "> 100 µM"
  },
  {
    "Compound": "COC(=O)C1=CN(CC2=CC(=O)C(C)=CC2=O)C=C(C(=O)OC)C1c1cccc(OC)c1OC",
    "TGI": "> 48.1 µM"
  },
  {
    "Compound": "CCOc1ccc(C2c3[nH]c4ccccc4c3CCN2C(=O)c2cccs2)cc1 (stereo unspecified)",
    "TGI": "> 100 µM"
  },
  {
    "Compound": "N#CCCc1nc2ccc(Br)cc2c(=O)n1-c1ccc(O)c([N+](=O)[O-])c1",
    "TGI": "> 100 µM"
  },
  {
    "Compound": "FC(F)(F)c1ccc2c(c1)N(CCCN1CCN(C3CC3)CC1)c1ccccc1S2",
    "TGI": "27.8 µM"
  },
  {
    "Compound": "COc1cc(C2c3cccc4cccc(c34)C3CCC(=O)N32)cc(O)c1O (stereo unspecified)",
    "TGI": "> 50 µM"
  },
  {
    "Compound": "NC(=S)N/N=C/c1cc(CN2CCOCC2)c(N)cn1",
    "TGI": "> 100 µM"
  },
  {
    "Compound": "COc1ccccc1NC(=O)C(C#N)=C(SC)SC",
    "TGI": "> 100 µM"
  },
  {
    "Compound": "COc1ncnc2c(NC3OC(CO)C(O)C3O)ncnc12 (stereo unspecified)",
    "TGI": "18 µM"
  },
  {
    "Compound": "OCCN(CO)CN(CN(CO)CCO)c1nc(N(CN(CO)CCO)CN(CO)CCO)nc(N(CN(CO)CCO)CN(CO)CCO)n1",
    "TGI": "4.38 ng/mL"
  },
  {
    "Compound": "Oc1cn(-c2ccc(Cl)cc2)nc1-c1nnc(Nc2ccccc2)o1",
    "TGI": "31.6 µM"
  },
  {
    "Compound": "COc1cc2c(/C=C3/C(=O)Nc4ccccc43)c(Cl)n(Cc3ccccc3)c2cc1C",
    "TGI": "> 100 µM"
  },
  {
    "Compound": "CCc1cc(Cc2cc(CC)c(NC(=O)C3=CC(=O)CC(c4ccc(OC)cc4)O3)c(CC)c2Cl)c(Cl)c(CC)c1NC(=O)C1=CC(=O)CC(c2ccc(OC)cc2)O1 (stereo unspecified)",
    "TGI": "46.5 µM"
  },
  {
    "Compound": "CCCCCCCCCCCCCCCC(=O)NC1CCc2cc(O)c(O)c(O)c2-c2ccc(SC)c(=O)cc21 (stereo unspecified)",
    "TGI": "25.4 µM"
  },
  {
    "Compound": "CCOC(=O)/C(C#N)=C(O)/C(=C/c1ccccc1Cl)NC(=O)c1ccccc1",
    "TGI": "> 100 µM"
  },
  {
    "Compound": "CCCCCCN1C(=O)/C(=c2\\sc3n(c2=O)C2C(NN=3)N(CC)C(=O)N2CC)c2ccccc21 (stereo unspecified)",
    "TGI": "> 50 µM"
  },
  {
    "Compound": "CC(=NNC(=S)Nc1ccccc1C)c1cccc(C(C)=NNC(=S)Nc2ccccc2C)n1",
    "TGI": "> 100 µM"
  },
  {
    "Compound": "S=C(Nc1ccccc1)c1ccccn1",
    "TGI": "> 100 µM"
  },
  {
    "Compound": "CCOC(=O)c1cc2c(cc1Cl)SC(N(c1ccc(F)cc1)S(=O)(=O)c1ccc(OC)cc1)=NS2(=O)=O",
    "TGI": "> 100 µM"
  },
  {
    "Compound": "CC(=O)NNC=N/C(C#N)=C(\\N)C#N",
    "TGI": "> 100 µM"
  },
  {
    "Compound": "CN(C)c1ccc(C2CC(=O)CC(c3ccc(N(C)C)cc3)C23C(=O)NC(=O)NC3=O)cc1 (stereo unspecified)",
    "TGI": "> 25 µM"
  },
  {
    "Compound": "O=C(Nc1ccccc1)N1CCNC1=S",
    "TGI": "> 100 µM"
  },
  {
    "Compound": "CCOC(=O)[C@H]1C[C@@H](C(=O)c2ccccc2)N2N=C(c3ccc(Br)cc3)C=C[C@H]12",
    "TGI": "> 100 µM"
  },
  {
    "Compound": "N=C(c1ccccc1)N1CCCCC1",
    "TGI": "> 100 µM"
  },
  {
    "Compound": "CC(=O)c1c2c(cc3c1CC1(Cc4cc5c(cc4C1)CCC5)C3)CCC2",
    "TGI": "> 100 µM"
  },
  {
    "Compound": "O=C1C(NCCc2cc(Br)c(O)c(Br)c2)=CC(=O)c2ncccc21",
    "TGI": "9.99 µM"
  },
  {
    "Compound": "CCOC(=O)CNC(=O)C(CSC(=O)N(O)c1ccc(Br)cc1)NC(=O)CCC(N)C(=O)OCC (stereo unspecified)",
    "TGI": "> 50 µM"
  },
  {
    "Compound": "CN1CC=C(OP(=O)(NCc2ccccc2)N(CCCl)CCCl)CC1 (stereo unspecified)",
    "TGI": "> 100 µM"
  }
]

----------
Each entry below lists one item and its recorded TGI value.
System: HCC-2998 colon
Assay: NCI tumour cell line growth inhibition, 48 h

[
  {
    "Compound": "C[N+](C)(C)CC1Cc2ccccc2C1=O (stereo not given)",
    "System Tested": "HCC-2998 colon",
    "TGI": "> 10 µM"
  },
  {
    "Compound": "CC1C(=O)N=C2C(=CN(Cc3ccccc3)c3ccccc32)C(=O)N1C (stereo not given)",
    "System Tested": "HCC-2998 colon",
    "TGI": "> 100 µM"
  },
  {
    "Compound": "COC(=O)C1=CN(CC2=CC(=O)C(C)=CC2=O)C=C(C(=O)OC)C1c1cccc(OC)c1OC",
    "System Tested": "HCC-2998 colon",
    "TGI": "27.2 µM"
  },
  {
    "Compound": "CC[C@@]1(O)C(=O)NCc2c1cc1n(c2=O)Cc2cc3cc4c(cc3nc2-1)OCO4",
    "System Tested": "HCC-2998 colon",
    "TGI": "> 89.1 µM"
  },
  {
    "Compound": "CCOC(=O)/C(C#N)=C(O)/C(=C/c1ccccc1Cl)NC(=O)c1ccccc1",
    "System Tested": "HCC-2998 colon",
    "TGI": "> 100 µM"
  },
  {
    "Compound": "O=S(=O)(O)C(F)(F)C(F)(F)C(F)(F)C(F)(F)F",
    "System Tested": "HCC-2998 colon",
    "TGI": "> 100 µM"
  },
  {
    "Compound": "[N-]=[N+]=Nc1ncc(-c2ccc(C(F)(F)F)cc2)c(NC2CCCCCC2)n1",
    "System Tested": "HCC-2998 colon",
    "TGI": "> 10 µM"
  },
  {
    "Compound": "COC(=O)Nc1ccc2ccc3c(NC(=O)OC)ccc4ccc1c2c43 (tested in a mixture with another compound)",
    "System Tested": "HCC-2998 colon",
    "TGI": "37.9 µM"
  },
  {
    "Compound": "COc1ccc(NC(=O)C2=C(SC)C(C#N)C(=O)N=C2N)cc1 (stereo not given)",
    "System Tested": "HCC-2998 colon",
    "TGI": "> 100 µM"
  },
  {
    "Compound": "Clc1nc(Cl)c2ncn(C/C=C\\Cn3cnc4c(Cl)nc(Cl)nc43)c2n1",
    "System Tested": "HCC-2998 colon",
    "TGI": "3.45 µM"
  },
  {
    "Compound": "Cc1cc2c(C(C)C)c(O)c(O)c3coc(/c1=c1/c(C)cc4c(C(C)C)c(=O)c(=O)c5coc1c45)c32",
    "System Tested": "HCC-2998 colon",
    "TGI": "14.8 µM"
  },
  {
    "Compound": "COc1ccc(C2CC(=O)Nc3c2c(C)nn3-c2nc3ccccc3[nH]2)cc1 (stereo not given)",
    "System Tested": "HCC-2998 colon",
    "TGI": "> 58.5 µM"
  },
  {
    "Compound": "CC(=O)Nc1ccc(-c2nnc(SCC(=O)Nc3ccccc3Cl)o2)cc1",
    "System Tested": "HCC-2998 colon",
    "TGI": "> 100 µM"
  },
  {
    "Compound": "CCn1c(=O)c2c(=O)[nH][nH]c2c2ccccc21",
    "System Tested": "HCC-2998 colon",
    "TGI": "> 100 µM"
  },
  {
    "Compound": "COc1ccc(/C=C2/C(=O)N(C(=O)c3ccc(Cl)cc3)N=C2C)cc1OC",
    "System Tested": "HCC-2998 colon",
    "TGI": "> 100 µM"
  },
  {
    "Compound": "Cc1ccccc1C(C#N)/C(=N/NC(=O)c1cc2ccccc2cc1O)C(=O)Nc1cccc(Cl)c1 (stereo not given)",
    "System Tested": "HCC-2998 colon",
    "TGI": "78.5 µM"
  },
  {
    "Compound": "O=C(CCN(CCO)CCO)Nc1ccc2c(c1)C(=O)c1ccc(NC(=O)CCN(CCO)CCO)cc1C2=O",
    "System Tested": "HCC-2998 colon",
    "TGI": "8.52 µM"
  },
  {
    "Compound": "CCCCCCC(N)(CCCCCC)C(=O)Nn1c(C)ccc1C",
    "System Tested": "HCC-2998 colon",
    "TGI": "> 100 µM"
  },
  {
    "Compound": "CCN=C1NN=C(c2ccccc2)c2cc(Cl)ccc2N1",
    "System Tested": "HCC-2998 colon",
    "TGI": "34.4 µM"
  },
  {
    "Compound": "O=C(Cc1ccccc1)N/N=C(/CCN1CCCC1)CC(c1ccccc1)c1c(O)c2ccccc2oc1=O (stereo not given)",
    "System Tested": "HCC-2998 colon",
    "TGI": "> 100 µM"
  }
]
